Test system: SF-539 CNS
Assay: NCI tumour cell line growth inhibition, 48 h
Use Y when the recorded TGI is no lower than 30 µM; use N when it is lower.

Would you please look over these solved cases?
molecule: COC(=O)c1cc(CC2Cc3cc4c(cc3C2=O)CCC4)cc2c1CCC2 (centres undefined)
tested system: SF-539 CNS
label value: Y

molecule: Brc1ccccc2cc(-c3ccccc3)nc1-2
tested system: SF-539 CNS
label value: N

molecule: C=C1N(S(=O)(=O)c2ccc(C)cc2)C(=O)OCC12CCCC2
tested system: SF-539 CNS
label value: Y

molecule: O=C(c1cscc1CCc1ccccc1)c1cscc1CCc1ccccc1
tested system: SF-539 CNS
label value: Y

molecule: CC(=Nc1ccc(N(C)C)cc1)c1ccccc1
tested system: SF-539 CNS
label value: Y

Task: Answer whether TGI of `CN(c1ccccc1)c1cc2ccccc2nn1` is greater than or equal to 30 µM.
Output: Y

Task: Answer whether TGI of `CCO/C(O)=C(/C(=N)N1CCOCC1)C(=O)NC(C)C` is greater than or equal to 30 µM.
Output: Y

----------
# maps each entry to its GI50
System: OVCAR-5 ovarian
Test: NCI tumour cell line growth inhibition, 48 h

structure: CCn1cc(CNc2ccc(C(=O)Nc3cc4cc(OC)c(OC)cc4c(C)n3)cc2)c(C)n1
tested system: OVCAR-5 ovarian
GI50: > 100 µM

Task: Dear colleague, I am looking for the recorded GI50 of the following molecule: `Cc1sc(C(=O)c2cncnc2N[C@@H]2C[C@H](COS(N)(=O)=O)[C@@H](O)C2)cc1[C@@H]1NCCc2ccc(Cl)cc21`
Output: 9.43 µM

Task: Dear colleague, I am looking for the recorded GI50 of the following molecule: `C=C1c2nc3ccccc3n2C=C(c2cccc(Cl)c2)N1Cc1ccc(OC)cc1`
Output: 5.84 µM

Task: Dear colleague, I am looking for the recorded GI50 of the following molecule: `NCCCNc1nc2ccccc2c2c(=O)c3cc(F)ccc3sc12`
Output: 1.61 µM

Task: Dear colleague, I am looking for the recorded GI50 of the following molecule: `Cc1ccc(/C=N/NC(=O)c2ccccc2Oc2ccccc2)o1`
Output: > 93 µM

----------
Test system: MDA-MB-231 breast
Test: NCI tumour cell line growth inhibition, 48 h
value kind: TGI (µM)
The reply should contain only the number, in µM.

molecule: Clc1sc(Cl)c2c1[C@H](Cl)C[C@@H]2Cl
tested system: MDA-MB-231 breast
TGI, µM: 90.5

molecule: COc1cccc2c1C(=O)c1c(O)c3c(c(O)c1C2=O)C[C@@](O)(/C(CO)=N/NC(=O)CCCCCN1C(=O)C=CC1=O)C[C@@H]3O[C@H]1C[C@H](N)[C@H](O)[C@H](C)O1
tested system: MDA-MB-231 breast
TGI, µM: 44

molecule: Cc1c(C(=O)c2ccccc2)[n+](=O)c2cc(Cl)c(Cl)cc2n1[O-]
tested system: MDA-MB-231 breast
TGI, µM: 25.9

Task: Enter reported TGI observed with MDA-MB-231 breast for COc1ccc(N2C(=O)C(Cl)C2c2cc3cc(Br)ccc3nc2Cl)cc1 (stereo not given)
Output: 9.1

Task: Enter reported TGI observed with MDA-MB-231 breast for `Nc1[nH]nc2nc(-c3cc(Cl)ccc3Cl)cc(-c3ccc(F)cc3)c12`
Output: 61.1

----------
System: MOLT-4 leukemia
Experiment: NCI tumour cell line growth inhibition, 48 h; in the data active = GI50 below about 0.43 µM; inactive = the rest
Respond using exactly one of the listed classes: active, inactive

compound: CN1CCN(CCCNC(=O)c2c3c(n4ccccc24)C(=O)c2ncccc2C3=O)CC1
tested system: MOLT-4 leukemia
label value: inactive

Task: Lab log entry: `C=C1C(=O)O[C@H]2[C@H]1CC/C(COC(=O)c1cccnc1N)=C\CC[C@@]1(C)O[C@@H]21` — outcome as called in the assay?
Output: inactive

Task: Lab log entry: `COC(=O)[C@]12CC[C@@H](C)[C@H](C)[C@@H]1C1=CC[C@@H]3[C@@]4(C)C(C=O)=C[C@@](C)(CO)[C@@H]4[C@H](O)C[C@@]3(C)[C@]1(C)CC2` — outcome as called in the assay?
Output: inactive

Task: Lab log entry: `CC[C@@H](C)/C=C(C)/C=C/C(=O)c1c(O)c(-c2ccc(OC(=O)[C@@]34CC[C@@](C)(C(=O)O3)C4(C)C)cc2)cn(O)c1=O` — outcome as called in the assay?
Output: inactive

Task: Lab log entry: `O=C1C=C(NCCO)c2nccc3c2c1nc1ccccc13` — outcome as called in the assay?
Output: inactive

Task: Lab log entry: `C=CCn1c2ccccc2c2c3c(c4c5ccccc5n(CC=C)c4c21)C(=O)N(O)C3=O` — outcome as called in the assay?
Output: inactive

Task: Lab log entry: `COc1ccc(Oc2nc3cc(N)cc(N)c3nc2-c2ccccc2)cc1` — outcome as called in the assay?
Output: inactive

----------
System: RPMI-8226 leukemia
Assay: NCI tumour cell line growth inhibition, 48 h
# maps each entry to its TGI

Task: Dear colleague, I am looking for the recorded TGI of the following compound: `O=C(c1cscc1CCc1ccccc1)c1cscc1CCc1ccccc1`
Output: > 100 µM

Task: Dear colleague, I am looking for the recorded TGI of the following compound: CC1(C)C(=O)OC(n2cc(F)c(=O)[nH]c2=O)C1=O (stereo not drawn)
Output: > 100 µM

Task: Dear colleague, I am looking for the recorded TGI of the following compound: `Cn1ncc(C#N)c1-c1ccc2c(c1)CN([C@H](CN)Cc1cccc(F)c1)C2=O`
Output: 18.3 µM

----------
System: HOP-62 NSCLC
Assay: NCI tumour cell line growth inhibition, 48 h; in the data active means GI50 below about 0.43 µM; inactive means the rest
Respond using exactly one of the listed classes: 1 = active, 0 = inactive

compound: C=CCn1c2ccccc2c2c3c(c4c5ccccc5n(CC=C)c4c21)C(=O)N(O)C3=O
tested system: HOP-62 NSCLC
label value: 0
//
compound: COc1ccc(Cn2cc(COc3cc(/C=C/C(=O)c4cc(OC)c(OC)c(OC)c4)ccc3OC)nn2)cc1
tested system: HOP-62 NSCLC
label value: 0
//
compound: COc1ccc2c(c1)C(=Nc1ccc(F)c(Cl)c1)c1c-2c(Nc2ccc(F)c(Cl)c2)nc2ccccc12
tested system: HOP-62 NSCLC
label value: 0

Task: Lab log entry: `CC1=CC(=O)N(c2cccc3c(N4C(=O)C=C(C)C4=O)cccc23)C1=O` — outcome as called in the assay?
Output: 0

Task: Lab log entry: Cc1nc2sc(C(=O)Nc3cccc(Br)c3C)c(N)c2cc1C(O)c1ccccc1 (stereo unspecified) — outcome as called in the assay?
Output: 1

Task: Lab log entry: `Cc1nc2nc(C)n(CCN3CCOCC3)c(=O)c2c(-c2cccc([N+](=O)[O-])c2)c1C(=O)CCCCCCCCCCN1CCC(c2ccccc2)(c2ccccc2)CC1` — outcome as called in the assay?
Output: 0

----------
Test system: OVCAR-4 ovarian
Assay: NCI tumour cell line growth inhibition, 48 h
# maps each entry to its GI50

The cases that follow already have their GI50 on record.
compound: C=CCn1c2ccccc2c2c3c(c4c5ccccc5n(CC=C)c4c21)C(=O)N(O)C3=O
result: 5.38 µM

compound: COc1cccc2c1C(=O)c1c(O)c3c(c(O)c1C2=O)C[C@@](O)(C(=O)CO)CC3OC1CC(N)C(OC2CCCCO2)C(C)O1 (some centres undefined)
result: 1.46 µM

compound: O=C(Nc1ccncc1)C(=O)c1cn(S(=O)(=O)c2cccc(Cl)c2)c2ccccc12
result: 7.51 µM

Shifting focus to the compound that follows.
Task: Dear colleague, I am looking for the recorded GI50 of the following compound: `CCn1cc(CNc2ccc(C(=O)Nc3cc4cc(OC)c(OC)cc4c(C)n3)cc2)c(C)n1`
Output: 3.07 µM

----------
# maps each entry to its TGI
Tested on: NCI-H226 lung
Test: NCI tumour cell line growth inhibition, 48 h

The cases that follow already have their TGI on record.
structure: CCOC(=O)c1ncn(CCc2ccc(Cl)cc2)c1C
value kind: TGI
result: > 100 µM
//
structure: C=C(C)[C@H]1CC[C@@]23O[C@@H]2[C@@H](C[C@@]2(C)CC(=O)[C@H](CC(=O)C1)O2)OC(=O)[C@@]12CC[C@H](C(=C)C)CC(=O)C[C@H]4O[C@](C)(CC4=O)C[C@@H](OC3=O)[C@@H]1O2
value kind: TGI
result: > 100 µM
//
structure: N#Cc1c2ccccc2c(Cc2ccc3c(c2)OCCOCCOCCOCCOCCO3)c2ccccc12
value kind: TGI
result: 24.3 µM

Task: Dear colleague, I am looking for the recorded TGI of the following molecule: `CN(C)c1ccc(C=Nc2ccc(-c3nc4ccccc4s3)cc2)cc1`
Output: > 100 µM

----------
# maps each entry to its GI50
Tested on: 786-0 renal
Test: NCI tumour cell line growth inhibition, 48 h

Task: Dear colleague, I am looking for the recorded GI50 of the following compound: `O=C(Oc1ccccc1)N(c1ccccc1)c1ccccc1`
Output: 26.2 µM

Task: Dear colleague, I am looking for the recorded GI50 of the following compound: `Cc1ccc(/C=N/NC(=O)c2ccccc2Oc2ccccc2)o1`
Output: > 100 µM

Task: Dear colleague, I am looking for the recorded GI50 of the following compound: Cc1ccc(N)cc1[As]=[As]c1cc(N)ccc1C (centres undefined)
Output: 1.64 µM

Task: Dear colleague, I am looking for the recorded GI50 of the following compound: `CCOc1cc(-c2nncn2C)ccc1Nc1ncc2cc(C)nc(NCC(C)(C)C)c2n1`
Output: > 100 µM

Task: Dear colleague, I am looking for the recorded GI50 of the following compound: `O=C(Nc1nc(-c2ccc(Cl)cc2)cs1)c1cc(O)c(O)c(O)c1`
Output: 218 µM

Task: Dear colleague, I am looking for the recorded GI50 of the following compound: `O=C1/C(=C\c2ccc(F)cc2)CN(C(=O)c2ccccc2F)C/C1=C\c1ccc(F)cc1`
Output: 1.61 µM

Task: Dear colleague, I am looking for the recorded GI50 of the following compound: `CN(C)c1ccc(/C=C(\C#N)c2cc3ccccc3[nH]2)cc1`
Output: 2.52 µM

Task: Dear colleague, I am looking for the recorded GI50 of the following compound: COC(=O)C1C(C(=O)O)C2(c3ccccc3)C(=O)C1(c1ccccc1)C(c1ccccc1)=C2c1ccccc1 (centres undefined)
Output: 21.2 µM

Task: Dear colleague, I am looking for the recorded GI50 of the following compound: `CC[C@@H](C)/C=C(C)/C=C/C(=O)c1c(O)c(-c2ccc(OC(=O)[C@@]34CC[C@@](C)(C(=O)O3)C4(C)C)cc2)cn(O)c1=O`
Output: 1.55 µM

Task: Dear colleague, I am looking for the recorded GI50 of the following compound: `CCc1nc(C)cn1C(=O)OCc1nc2nc(Cl)nc(N3CCOCC3)c2[nH]1`
Output: 1.61 µM
